biological target: T1, human C-KIT-Fc (human, UniProt P10721 26-524); assay: direct ELISA;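 further: Plate-coated C-KIT-Fc (1 µg/ml) probed with antibodies for 1 hr, bound IgG detected via anti-human kappa-HRP and TMB, absorbance measured at 450 nm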
T1 construct: also called biotinylated human C-KIT-Fc; not shown: Fc part not described
experimental_endpoint: binding result

{"binder": "MH5.20 (antibody, IgG1, V domains shown, IgG1) VH: QVQLVQSGAEVKKPGASVKVSCKASGYTFTDFYMNWVRQAPGQGLEWMGRIYPGAGNTYYAQKFQGRVTMTRDTSTSTVYMELSSLRSEDTAVYYCARGVWYFDTWGQGTLVTVSS VL: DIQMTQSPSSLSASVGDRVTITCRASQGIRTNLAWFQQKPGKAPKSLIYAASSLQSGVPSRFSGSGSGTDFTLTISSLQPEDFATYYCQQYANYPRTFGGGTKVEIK", "reported_value": "binds"}
{"binder": "MH5.7 (antibody, IgG1, V domains shown, IgG1) VH: QVQLVQSGAEVKKPGASVKVSCKASGYTFTDHYMNWVRQAPGQGLEWMGRIYPGAGNTYYAQKFQGRVTMTRDTSTSTVYMELSSLRSEDTAVYYCARGVWYYDYWGQGTLVTVSS VL: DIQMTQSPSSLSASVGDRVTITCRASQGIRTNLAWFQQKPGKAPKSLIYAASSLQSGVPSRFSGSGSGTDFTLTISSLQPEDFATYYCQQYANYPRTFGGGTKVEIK", "reported_value": "binds"}
